# system-name: T1, soluble human FcRn (human, UniProt P55899 24-297; P61769 21-119, biotinylated (Sulfo-NHS-LC-Biotin) in the ELISA; amine-coupled to CM5 chip in SPR)
# T1 construct: also called shFcRn; biotinylated shFcRn
# experiment-summary: ELISA, competitor human IgG
pIC50: −log10 of the molar value. Bridge positions count the residues as written; N and C are the ends. Ends that are not written are not given here.
property-label: pIC50

> print(dat)
                                     binder  obs.value
1  AGPSYCIEGHIDGIYCFNAGTGGGK-NH2 (disulfide 6-16 (inferred)) [SEQ ID NO:9]       4.31

(a) AGKIICSPGHFGGMYCQGKGTGGGK-NH2 (disulfide 6-16 (inferred)) [SEQ ID NO:8]
(b) AGQRFCTGHFGGLYPCNGPGTGGGK-NH2 (disulfide 6-16 (inferred)) [SEQ ID NO:6]
Incoming: Hey, which is lower on measured pIC50, a or b ? The response must carry the label of the picked entry.
Outgoing: a
